Parameter Tmax: see the listing below.
- assayOverview: in vivo pharmacokinetic experiment in mice
- Set-up: species or system ICR mice
- conditionDescription: male, ICR, mouse; oral intragastric administration 10 mg/kg, single, plasma
Return type: number; implicit unit min.

Example entries and their recorded answers appear below.
molecule | endpointName | recordedMeasurement
C[C@@]1(O)CC[C@H]2[C@H](CC[C@@H]3[C@@H]2CC[C@]2(C)[C@@H](C(=O)Cn4cc(C#N)cn4)CC[C@@H]32)C1 [Sage-217, reference compound] | Tmax | 60
C[C@H]1C[C@H]2[C@H](CC[C@@H]3[C@@H]2CC[C@]2(C)[C@@H](C(=O)Cn4ncnn4)CC[C@@H]32)C[C@]1(C)O | Tmax | 30
C[C@H]1C[C@H]2[C@H](CC[C@@H]3[C@@H]2CC[C@]2(C)[C@@H](C(=O)Cn4cc(C#N)cn4)CC[C@@H]32)C[C@]1(C)O | Tmax | 480

Read the next record carefully.
Req: Would you mind telling me what Tmax value was observed for `C[C@@H]1C[C@H](C(=O)Cn2ncnn2)[C@@]2(C)CC[C@H]3[C@@H](CC[C@@H]4C[C@](C)(O)[C@@H](C)C[C@@H]43)[C@H]12` ?
Resp: 19.8

----------
- testTarget: GABAa receptor (α1β2γ2) (Homo sapiens, UniProt P14867+P47870)
- Sequence (P14867 28-456): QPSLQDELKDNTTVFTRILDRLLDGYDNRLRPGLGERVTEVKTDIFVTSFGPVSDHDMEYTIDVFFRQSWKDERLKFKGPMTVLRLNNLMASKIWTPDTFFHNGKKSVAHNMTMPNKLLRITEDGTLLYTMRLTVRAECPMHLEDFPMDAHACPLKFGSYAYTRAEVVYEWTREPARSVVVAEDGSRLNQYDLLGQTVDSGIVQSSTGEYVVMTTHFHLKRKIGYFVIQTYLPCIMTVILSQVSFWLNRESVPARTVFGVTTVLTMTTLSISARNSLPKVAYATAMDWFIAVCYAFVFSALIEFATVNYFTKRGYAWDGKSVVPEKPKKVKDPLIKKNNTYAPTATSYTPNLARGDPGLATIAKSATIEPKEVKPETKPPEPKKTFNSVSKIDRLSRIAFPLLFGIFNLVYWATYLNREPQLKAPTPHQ
- Sequence (P47870 25-512 limits assumed): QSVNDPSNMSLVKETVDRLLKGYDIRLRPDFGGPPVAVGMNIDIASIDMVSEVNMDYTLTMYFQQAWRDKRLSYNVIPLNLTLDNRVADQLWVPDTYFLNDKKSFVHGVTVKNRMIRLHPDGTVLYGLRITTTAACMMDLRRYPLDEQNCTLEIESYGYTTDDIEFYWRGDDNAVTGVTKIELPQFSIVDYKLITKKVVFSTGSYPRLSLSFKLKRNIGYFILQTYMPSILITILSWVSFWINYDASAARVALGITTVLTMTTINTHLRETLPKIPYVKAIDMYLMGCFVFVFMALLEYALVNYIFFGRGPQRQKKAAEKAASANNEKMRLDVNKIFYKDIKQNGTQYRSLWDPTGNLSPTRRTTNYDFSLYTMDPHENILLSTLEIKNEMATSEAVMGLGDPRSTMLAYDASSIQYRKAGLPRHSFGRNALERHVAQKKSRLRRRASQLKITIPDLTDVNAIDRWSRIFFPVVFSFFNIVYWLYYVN
- Sequence (P18507 40-475 partner): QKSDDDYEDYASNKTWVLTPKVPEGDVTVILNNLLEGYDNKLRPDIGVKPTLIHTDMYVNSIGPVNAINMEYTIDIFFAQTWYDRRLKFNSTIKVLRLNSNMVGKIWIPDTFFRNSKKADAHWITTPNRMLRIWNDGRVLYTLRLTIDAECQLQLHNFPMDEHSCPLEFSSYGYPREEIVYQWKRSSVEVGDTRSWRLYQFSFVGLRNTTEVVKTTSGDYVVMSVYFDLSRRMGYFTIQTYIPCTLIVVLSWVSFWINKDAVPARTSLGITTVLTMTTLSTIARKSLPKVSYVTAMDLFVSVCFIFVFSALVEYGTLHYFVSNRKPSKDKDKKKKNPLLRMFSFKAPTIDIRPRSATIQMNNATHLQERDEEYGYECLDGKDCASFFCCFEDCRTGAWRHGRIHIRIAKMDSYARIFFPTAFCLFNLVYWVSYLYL
- assayOverview: in vitro GABAa receptor (α1β2γ2) cellular activity assay, manual whole-cell patch clamp, enhancement of currents induced by 1 µM GABA
- Assay type: cell-based
- conditionDescription: single concentration 0.1 µM; relative enhancement amplitude of GABAa receptor currents induced by 1 µM GABA; CHO cells; read-out: Agonist ratio
endpointName: activation at 0.1 µM (%)
Report as a plain number; the unit % is understood.

Req: Record lookup: for GABAa receptor (α1β2γ2) (Homo sapiens, UniProt P14867+P47870), what activation at 0.1 µM belongs to C[C@@H]1C[C@H](C(=O)Cn2cncn2)[C@@]2(C)CC[C@H]3[C@@H](CC[C@@H]4C[C@](C)(O)[C@@H](C)C[C@@H]43)[C@H]12 [Example 6] ?
Resp: 380

Req: And for C[C@@H]1C[C@H](C(=O)Cn2ncnn2)[C@@]2(C)CC[C@H]3[C@@H](CC[C@@H]4C[C@H](O)[C@@H](C)C[C@@H]43)[C@H]12 [Example 17] ?
Resp: 217

Req: Now the compound C[C@@H]1C[C@H](C(=O)Cn2nccn2)[C@@]2(C)CC[C@H]3[C@@H](CC[C@@H]4C[C@](C)(O)[C@@H](C)C[C@@H]43)[C@H]12 [Example 7]
Resp: 794

Req: Try C[C@H]1C[C@H]2[C@H](CC[C@@H]3[C@@H]2CC[C@]2(C)[C@@H](C(=O)Cn4ncnn4)CC[C@@H]32)C[C@]1(C)O [Example 20] next.
Resp: 970

----------
- assayOverview: in vivo pharmacokinetic experiment in mice
- Parameters: species or system ICR mice
- conditionDescription: mouse; oral intragastric administration 10 mg/kg, single, plasma
endpointName: Cmax (ng/mL)
Give a bare numeral; the unit ng/mL is implied.

Req: Fill in: Cmax of `C[C@@H]1C[C@H](C(=O)Cn2cc(C#N)cn2)[C@@]2(C)CC[C@H]3[C@@H](CC[C@@H]4C[C@](C)(O)[C@@H](C)C[C@@H]43)[C@H]12` is ___
Resp: 1240
